System: KM12 colon
method: NCI-60 one-dose screen, 48 h
setup-conditions: 10 µM unless noted
Compounds without any hit were thinned out: in the full panel of roughly 83,000, 20% have a hit. Calls of active or inactive are those of the source. Rule for the calls: active = growth percent below 10; inactive = the rest.
Labels: YES (active), NO (inactive)

molecule	target-or-test-system	discrete-label
C[C@H]1O[C@@H](O[C@H]2[C@@H](O)C[C@H](O[C@H]3[C@@H](O)C[C@H](O[C@H]4CC[C@]5(C)C6C[C@@H](O)[C@]7(C)[C@@H](C8=CC(=O)OC8)CC[C@]7(O)C6CC[C@@H]5C4)O[C@@H]3C)O[C@@H]2C)C[C@H](O)[C@@H]1O (stereo partly drawn)	KM12 colon	YES
OCCCc1n(Cc2ccc3ccccc3c2)c2ccccc2[n+]1Cc1ccc2ccccc2c1	KM12 colon	YES
CSc1nc(-c2ccc(O)cc2O)c2c(=O)[nH]c(Nc3ccc(S(=O)(=O)Nc4nc(C)cc(C)n4)cc3)nc2n1	KM12 colon	NO
O=c1c2c(=NCCCN3CCCC3)cc3c(=O)n(CCCN4CCCC4)c(=O)c4c(NCCCN5CCCC5)cc(c(O)n1CCCN1CCCC1)c2c4-3	KM12 colon	YES
COc1ccc(-c2cc(-c3cccnc3)nc3sc(C(=O)Nc4ccccc4)c(N)c23)cc1OC	KM12 colon	NO
O=C1c2cc3c(cc2-c2c1c1ccc(Cl)cc1c(=O)n2CCCNCCO)OCO3	KM12 colon	YES
C[C@@H]1[C@H]2[C@H](C=C3[C@@H]4CC[C@H]5Cc6nc7c(nc6C[C@]5(C)[C@H]4C[C@@H](O)[C@@]32C)C[C@@H]2CC[C@H]3C4=C[C@@H]5O[C@@]6(CC[C@](C)(CO)O6)[C@@H](C)[C@@]5(O)[C@@]4(C)[C@H](O)C[C@@H]3[C@@]2(C)C7)O[C@]12CCC(C)(C)O2	KM12 colon	NO
O=C(COc1cccc(/C=C2\Cc3ccccc3C2=O)c1)c1ccc(Cl)cc1	KM12 colon	NO
O=C(O)c1ccc2cccnc2c1O	KM12 colon	NO
O=C1/C(=C\c2coc3ccccc3c2=O)c2ccccc2N1c1c(Cl)cccc1Cl	KM12 colon	NO
O=Cc1ncc(-c2ccc(C(F)(F)F)cc2)c(NC2CCCCCC2)n1	KM12 colon	YES
CSc1nc2nc3c(nc2c(=O)n1C)C(=O)c1ccccc1C3=O	KM12 colon	YES
[N-]=[N+]=NCc1cccc(/C(O)=C/C(=O)C(=O)O)c1	KM12 colon	NO
O=C1Nc2ccc(C(=O)O)c(O)c2C1=O	KM12 colon	NO
CCOc1cc(/C=C/C(=O)CC(=O)/C=C/c2ccc(OC(=O)CNc3nc4ccc(OC)cc4s3)c(OCC)c2)ccc1OC(=O)CNc1nc2ccc(OC)cc2s1	KM12 colon	YES
O=C(C(=O)N1CCOCC1)c1cn(CCCn2cc(C(=O)C(=O)N3CCOCC3)c3ccccc32)c2ccccc12	KM12 colon	NO
O=C(Nc1ccccc1)P(=O)(O)c1ccccc1	KM12 colon	NO
Cc1ccc(/C=C(/C#N)n2nnc3ncccc32)cc1	KM12 colon	NO

###

System: MALME-3M melanoma
method: NCI-60 one-dose screen, 48 h (100 = growth as untreated, 0 = no growth, -100 = all killed)
setup-conditions: 10 µM unless noted
The panel holds about 83,000 compounds, 20% with a hit somewhere; the sample as a whole holds those more often. Active and inactive are the calls of the source. Rule for the calls: active = growth percent below 10; inactive = the rest.

compound	target-or-test-system	growth
C[C@H](C(=O)N[C@@H](Cc1ccc(-c2ccccc2)cc1)C(=O)NC1CC(C)(C)N(C)C(C)(C)C1)c1ccc(-c2ccccc2)c(F)c1	MALME-3M melanoma	-71.5% (active)
CCOC(=O)OCC(=O)[C@@]1(O)CC[C@H]2[C@@H]3CCC4=CC(=O)CC[C@]4(C)[C@H]3[C@@H](O)C[C@@]21C	MALME-3M melanoma	75.7% (inactive)
CCOC(=O)N1CCC(N=C2CSc3nnc(-c4cc(C(F)(F)F)cc(C(F)(F)F)c4)n3N2)CC1	MALME-3M melanoma	68.4% (inactive)
CC(C)CNc1nc(N=[N+]=[N-])nc(NCC(C)C)n1	MALME-3M melanoma	72.7% [100 µM] (inactive)
C[C@H](C(=O)N[C@@H](Cc1ccc(-c2ccccc2)cc1)C(=O)NC1CC(C)(C)NC(C)(C)C1)c1ccc(-c2ccccc2)c(F)c1	MALME-3M melanoma	-77.4% (active)
COc1cccc(C=Nc2cc(C(C)C)c(O)cc2C)c1O	MALME-3M melanoma	106% (inactive)
N#Cc1c(-c2ccc(F)cc2)n2c(nc1=O)SC(=O)C2=O	MALME-3M melanoma	90.8% (inactive)
CCOC(=O)c1cnc2c(C)cc(C)cc2c1NCCCN(C)C	MALME-3M melanoma	51% (inactive)
O=[N+]([O-])c1ccc(NS(=O)(=O)c2ccc(Cl)c(Cl)c2)cc1	MALME-3M melanoma	88% (inactive)
O=C1C(=O)c2c(nc3ccc(Cl)cn23)-c2ccccc21	MALME-3M melanoma	-81.8% (active)
O=C(Nc1ccccc1S)c1ccccc1	MALME-3M melanoma	116% (inactive)
COc1cc(/C=C/C(=O)C(C(=O)/C=C/c2ccc(OC(=O)CCNC34CC5CC(CC(C5)C3)C4)c(OC)c2)C(=O)CCNC23CC4CC(CC(C4)C2)C3)ccc1OC(=O)CCNC12CC3CC(CC(C3)C1)C2 (centres undefined)	MALME-3M melanoma	18.6% (inactive)
Cc1sc2nc(NCCc3cccs3)[nH]c(=O)c2c1C	MALME-3M melanoma	98.7% (inactive)
O=Nc1c2cccnc2n2nnc3ccc(Cl)cc3c12	MALME-3M melanoma	23.7% (inactive)
COc1cc(/C=C/C(=O)CC(=O)/C=C/c2ccc(OC(=O)C3C4CC5CC(C4)CC3C5)c(OC)c2)ccc1OC(=O)C1C2CC3CC(C2)CC1C3 (centres undefined)	MALME-3M melanoma	78.4% (inactive)
CC(C)Sc1nc(Cl)c(C#N)c(-c2ccc(F)cc2)n1	MALME-3M melanoma	100% (inactive)
COc1cc(-c2nnc(-c3nc(-c4cc(OC)c(OC)c(OC)c4)n4ccccc34)o2)ccc1N	MALME-3M melanoma	86.5% (inactive)
O=C1C=CC(=O)N1c1ccccn1	MALME-3M melanoma	124% (inactive)
O=c1ccn(C2CC=C(CO)O2)c(=O)[nH]1 (centres undefined)	MALME-3M melanoma	80.9% (inactive)

###

Reported values of growth for individual entries
System: MDA-MB-435 melanoma
method: NCI-60 one-dose screen, 48 h (100 = growth as untreated, 0 = no growth, -100 = all killed)
setup-conditions: 10 µM unless noted
Compounds without any hit were thinned out: in the full panel of roughly 83,000, 20% have a hit.
parameter: growth (%)

compound	unit-text	result
O=C(Nc1nc(-c2ccc(Cl)cc2)cs1)c1cc(-c2ccc(Br)cc2)nc2ccc(Cl)cc12	%	-21.6
CC1CN(/N=C/c2ccc([N+](=O)[O-])o2)C(=N)O1 (stereo unspecified)	%	100
O=C(NC1CCS(=O)(=O)C1)c1ccc(C(=O)c2ccccc2)cc1 (stereo unspecified)	%	101
COc1ccc(-c2nnc3c4[nH]cnc4ncn23)c(OC)c1	%	13.2
Nc1ccc2c(c1Br)Cc1ccccc1-2	%	110
COc1ccc(OC)c(CCn2cncc2-c2c[nH]c3cc(Br)ccc23)c1	%	11.8

###

Reported values of growth for individual entries
Tested on: A549/ATCC NSCLC
method: NCI-60 one-dose screen, 48 h (100 = growth as untreated, 0 = no growth, -100 = all killed)
setup-conditions: 10 µM unless noted
About 83,000 compounds went through this panel and 20% of them were active in at least one assay; those are over-represented in the sample as a whole.

molecule	unit-text	growth
COc1ccc(C(=O)/C=C/c2ccc(C)cc2)cc1OC	%	36.3
COc1cc(C2CC(C3C(=O)N(C)C(=O)N(C)C3=O)=NN2c2cc(Cl)cc(Cl)c2)cc(OC)c1OC (centres undefined)	%	78.2
c1ccc(-c2n(Cc3ccc4ccccc4c3)cc[n+]2Cc2ccc3ccccc3c2)cc1	%	12.5
COc1ccc(-c2cc(-c3cccnc3)nc3sc(C(=O)Nc4ccccc4)c(N)c23)cc1OC	%	74.2
Cc1ccc(-c2c3c(N)nc(-c4ccncc4)nc3nc3c2c(C)nn3-c2ccccc2)cc1	%	17.8
O=C1NC(=S)S/C1=C\c1cc(Br)ccc1O	%	107
COc1cc(Cl)cc(-c2nn(-c3cccc(NC(=O)c4cc(C(F)(F)F)cc(C(F)(F)F)c4)c3)cc2-c2ccncc2)c1	%	43.5
C=C1CCC2C(C)(COC(=O)CC)C(OC(=O)CC)CCC2(C)C1C/C=C1/C(=O)OCC1OC(=O)CC (centres undefined)	%	46.1
O=C(Nc1ccccc1OC(=O)c1ccccc1)c1ccccc1	%	81.3

###

Tested on: UO-31 renal
method: NCI-60 one-dose screen, 48 h (100 = growth as untreated, 0 = no growth, -100 = all killed)
setup-conditions: 10 µM unless noted
About 83,000 compounds went through this panel and 20% of them were active in at least one assay; those are over-represented in the sample as a whole.
For each record, check the reported growth: if it is below 20% write rule met, else write rule not met.

molecule	discrete-label
COc1ccc(NC(=O)[C@@H]2C[C@H]2c2ccccc2)c(C(N)=O)c1	rule not met
C(=C1c2ccccc2-c2ccccc21)c1ccccn1	rule not met
COc1cccc(-c2nc3cc(NC(=O)c4ccc(Cl)c(C#N)c4)ccc3o2)c1	rule not met
Nc1nc(Nc2ccccc2SSc2ccccc2Nc2nc(N)nc(-c3ccc(I)cc3)n2)nc(-c2ccc(I)cc2)n1	rule met
COc1cccc2c1C(=O)c1c(O)c3c(c(O)c1C2=O)C[C@@](O)(C(C)=O)C[C@@H]3O[C@H]1C[C@H](N)[C@H](O)[C@H](C)O1	rule met
O=C(c1ccccc1)C(CN1CCCCC1)c1ccccc1 (centres undefined)	rule met
COc1ccc(N2CCN(CC(=O)N3CCN(c4nnc(-c5ccc(Cl)cc5)c(-c5ccc(Cl)cc5)n4)CC3)CC2)cc1	rule not met
O=C(c1ccccc1)c1ccc(Oc2ccc([N+](=O)[O-])cc2[N+](=O)[O-])cc1	rule not met
CC[C@@H](C)/C=C(C)/C=C/C(O)=C1\C(=O)N[C@@H](Cc2ccc(OC(=O)[C@@](OC)(c3ccccc3)C(F)(F)F)cc2)C1=O	rule not met
